measured_property: pIC50
Schema: pIC50 number; meaning minus log10 of the concentration expressed in molar units.

Prompt line: Report value only: pIC50, UniProtKB P62993, "CC(=O)N[C@@H](Cc1ccc(CP(=O)(O)O)cc1)C(=O)NC1(C(=O)N[C@@H](CC(N)=O)C(=O)NCCCc2cccc3ccc(O)cc23)CCCCC1"
Sequence (P62993 whole entry): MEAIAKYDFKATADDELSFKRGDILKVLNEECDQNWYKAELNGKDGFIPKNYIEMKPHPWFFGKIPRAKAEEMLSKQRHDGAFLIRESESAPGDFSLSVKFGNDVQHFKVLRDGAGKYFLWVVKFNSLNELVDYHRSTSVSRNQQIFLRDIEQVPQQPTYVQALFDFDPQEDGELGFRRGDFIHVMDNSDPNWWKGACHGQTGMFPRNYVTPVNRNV
Response line: 7.61

Prompt line: Report value only: pIC50, UniProtKB P62993, "COc1ccc2c(CCCNC(=O)[C@H](CC(N)=O)NC(=O)C3(NC(=O)[C@H](Cc4ccc(CP(=O)(O)O)cc4)NC(C)=O)CCCCC3)cccc2c1"
Response line: 6.89

Prompt line: Report value only: pIC50, UniProtKB P62993, "CC(=O)N[C@@H](Cc1ccc(CP(=O)(O)O)cc1)C(=O)NC1(C(=O)N[C@@H](CC(N)=O)C(=O)NCCCc2cccc3cc(O)ccc23)CCCCC1"
Response line: 7.37

Prompt line: Report value only: pIC50, UniProtKB P62993, "CC(=O)N[C@@H](Cc1ccc(CP(=O)(O)O)cc1)C(=O)NC1(C(=O)N[C@@H](CC(N)=O)C(=O)NCCCc2ccc3cccc(O)c3c2)CCCCC1"
Response line: 7.95

Prompt line: Report value only: pIC50, UniProtKB P62993, "CC(=O)N[C@@H](Cc1ccc(CP(=O)(O)O)cc1)C(=O)NC1(C(=O)N[C@@H](CC(N)=O)C(=O)NCCCc2c(O)ccc3ccccc23)CCCCC1"
Response line: 7.37

Prompt line: Report value only: pIC50, UniProtKB P62993, "CC(=O)N[C@@H](Cc1ccc(CP(=O)(O)O)cc1)C(=O)NC1(C(=O)N[C@@H](CC(N)=O)C(=O)NCCCc2cccc3ccccc23)CCCCC1"
Response line: 7.37
